Measured Population Hoechst High Intensity Objects (%), listed per entry for reference.
# System: U2OS
# assay.comment: Multiplex assay against U2OS
# Type: toxicity, cell-based
# measurement.parameters: human, 24 h, 1 µM, compound concentration 1 uM, replicate 2
Value expressed in %; do not type the unit.

Below, each entry is followed by its recorded Population Hoechst High Intensity Objects (%) result.
- compound: "NC(=O)c1ccc2nc(-c3ccc(C4(N)CCC4)cc3)c(-c3ccccc3)n2n1 [BAY-1125976]"
  units: "%"
  value.reported: 8
- compound: "C[C@@H](Oc1cc(-n2cnc3ccc(CN4CCN(C)CC4)cc32)sc1C(N)=O)c1ccccc1C(F)(F)F [GSK-461364]"
  units: "%"
  value.reported: 4
- compound: "C=CC(=O)Nc1cc(-n2c(=O)ccc3cnc4ccc(-c5ccc(NS(C)(=O)=O)cc5)cc4c32)ccc1C"
  units: "%"
  value.reported: 2
- compound: "Oc1cccc(-c2nc(N3CCOCC3)c3oc4ncccc4c3n2)c1 [PI-103]"
  units: "%"
  value.reported: 6
- compound: "CCCc1cc(C)[nH]c(=O)c1CNC(=O)c1cc(-c2ccc(N3CCN(C(C)C)CC3)nc2)cc2c1cnn2C(C)C"
  units: "%"
  value.reported: 10

Problem: Report Population Hoechst High Intensity Objects (%) for `Cc1c(P(=S)(c2ccccc2)c2ccccc2)n2ccccc2[n+]1C/C=C/c1ccccc1.[Br-]` please.
Solution: 33

Problem: What about this compound? `CCCCN(CC)c1nc(C)nc2c1c(C)cn2-c1c(C)cc(C)cc1C.Cl`
Solution: 5

Problem: What about this compound? `CN(c1cc(C(F)(F)F)nc(OCCC(=O)O)n1)c1cccc2c1CCC2`
Solution: 8

Problem: What about this compound? `CCOC(=O)CCNc1cc(N2CCc3ccccc3CC2)nc(-c2ccccn2)n1`
Solution: 10

====

Measured Population Hoechst High Intensity Objects (%), listed per entry for reference.
# Test system: HEK-293T
# assay.comment: Multiplex assay against HEK293T
# Format: toxicity, cell-based
# measurement.parameters: human, 24 h, 1 µM, compound concentration 1 uM, replicate 2
Value expressed in %; do not type the unit.

Below, each entry is followed by its recorded Population Hoechst High Intensity Objects (%) result.
- molecule: "Cc1c(Nc2ccc(S(=O)(=O)N3CCN(C)CC3)cc2F)nc2ccc(Nc3cnn(C4CC4)c3)cn2c1=O"
  assayed.system: "HEK-293T"
  units: "%"
  value.reported: 5
- molecule: "CCCCN(CC)c1nc(C)nc2c1c(C)cn2-c1c(C)cc(C)cc1C.Cl"
  assayed.system: "HEK-293T"
  units: "%"
  value.reported: 1

Problem: Report Population Hoechst High Intensity Objects (%) for `CC(/C=C1\SC(=S)N(CCCC(=O)Nc2ccc(C(=O)O)c(O)c2)C1=O)=C\c1ccccc1` please.
Solution: 1

====

Measured Population Mitochondria Different-Phenotype (%), listed per entry for reference.
# System: Fibroblast
# assay.comment: Multiplex assay against human fibroblast
# Assay type: toxicity, cell-based
# measurement.parameters: 48 h, 1 µM, compound concentration 1 uM, replicate 1

Below, each entry is followed by its recorded Population Mitochondria Different-Phenotype (%) result.
- compound: "CN1C(=O)[C@@H](NC(=O)c2cc3ccccc3[nH]2)N=C(c2ccccc2)c2ccccc21 [DEVAZEPIDE]"
  assayed.system: "Fibroblast"
  value.reported: "18%"
- compound: "CC(C)c1cc(Nc2nc(N3CCC[C@H](N)C3)ncc2C(N)=O)cc(C(C)C)n1"
  assayed.system: "Fibroblast"
  value.reported: "7%"

Problem: Report Population Mitochondria Different-Phenotype (%) for `Oc1cccc(-c2nc(N3CCOCC3)c3oc4ncccc4c3n2)c1` please.
Solution: 5%

Problem: What about this compound? `C[C@@H](Oc1cc(-n2cnc3ccc(CN4CCN(C)CC4)cc32)sc1C(N)=O)c1ccccc1C(F)(F)F`
Solution: 8%

Problem: What about this compound? `CC(/C=C1\SC(=S)N(CCCC(=O)Nc2ccc(C(=O)O)c(O)c2)C1=O)=C\c1ccccc1`
Solution: 3%

Problem: What about this compound? `CN(c1cc(C(F)(F)F)nc(OCCC(=O)O)n1)c1cccc2c1CCC2`
Solution: 2%

Problem: What about this compound? CCCCCNC(=N)N/N=C/c1c[nH]c2ccc(OC)cc12.O=C(O)/C=C\C(=O)O [TEGASEROD MALEATE]
Solution: 1%

Problem: What about this compound? `CC(C)[C@H](CO)Nc1nc(Nc2cccc(Cl)c2)c2ncn(C(C)C)c2n1`
Solution: 4%

====

# System: U2OS
# assay.comment: Multiplex assay against U2OS
# Format: toxicity, cell-based
# measurement.parameters: human, 24 h, 10 µM, compound concentration 10 uM, replicate 1
Measured Population Normal (%), listed per entry for reference.
Your reply should be a number followed by the unit it is expressed in.

Below, each entry is followed by its recorded Population Normal (%) result.
- molecule: "CC(C)[C@H](CO)Nc1nc(Nc2cccc(Cl)c2)c2ncn(C(C)C)c2n1 [PURVALANOLA]"
  Population Normal (%): "83%"
- molecule: "Cl.NC[C@@H]1O[C@H](C23CC4CC(CC(C4)C2)C3)Cc2c1ccc(O)c2O"
  Population Normal (%): "93%"
- molecule: "CC[C@@]1(O)C(=O)OCc2c1cc1n(c2=O)Cc2cc3ccccc3nc2-1 [CAMPTOTHECIN]"
  Population Normal (%): "94%"

Problem: Report Population Normal (%) for CC(Cc1ccc(O)c(O)c1)C(C)Cc1ccc(O)c(O)c1 (stereo not drawn) [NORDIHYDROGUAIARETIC ACID] please.
Solution: 85%

Problem: What about this molecule? `CCOC(=O)CCNc1cc(N2CCc3ccccc3CC2)nc(-c2ccccn2)n1`
Solution: 94%

Problem: What about this molecule? COc1cc(C)c(Sc2cnc(NC(=O)c3ccc(CNC(C)C(C)(C)C)cc3)s2)cc1C(=O)N1CCN(C(C)=O)CC1 (stereo not drawn)
Solution: 98%

Problem: What about this molecule? C[C@@H](Oc1cc(-n2cnc3ccc(CN4CCN(C)CC4)cc32)sc1C(N)=O)c1ccccc1C(F)(F)F [GSK-461364]
Solution: 91%

Problem: What about this molecule? `C=CC(=O)Nc1cc(-n2c(=O)ccc3cnc4ccc(-c5ccc(NS(C)(=O)=O)cc5)cc4c32)ccc1C`
Solution: 96%

====

# Test system: HEK-293T
# assay.comment: Multiplex assay against HEK293T;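 as to Population Tubulin-Different-Phenotype (%): share of the cells with healthy nuclei that show this phenotype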
# Format: toxicity, cell-based
# measurement.parameters: human, 12 h, 1 µM, compound concentration 1 uM, replicate 1
# note: exactly 30% is not below, so it is F; use T for Population Tubulin-Different-Phenotype (%) strictly under it

- molecule: "CN(c1cc(C(F)(F)F)nc(OCCC(=O)O)n1)c1cccc2c1CCC2"
  assayed.system: "HEK-293T"
  assigned.category: "T"

Now take the following molecule into account.
Problem: Is 30% strictly greater than the molecule's reported Population Tubulin-Different-Phenotype (%)? molecule: `Cc1c(P(=S)(c2ccccc2)c2ccccc2)n2ccccc2[n+]1C/C=C/c1ccccc1.[Br-]`
Solution: F

====

# System: HEK-293T
# assay.comment: Incucyte cell viability with HEK293T; also: filed as whole numbers so only -1 and 0 and 1 occur
# Format: toxicity, cell-based
# measurement.parameters: human, 12 h, 10 µM, compound concentration 10 uM, replicate number 1, timepoint 12 hours
property: Growth Rate
// return a plain number; no unit text

- compound: "CCOC(=O)c1ccc(C#Cc2ccc3c(c2)C(C)(C)CCS3)nc1 [TAZAROTENE]"
  assayed.system: "HEK-293T"
  value.reported: 0
- compound: "COc1cc(C#N)ccc1S(=O)(=O)Nc1ccc2c(c1)cc(C)c(=O)n2C"
  assayed.system: "HEK-293T"
  value.reported: 0
- compound: "CCCc1cc(C)[nH]c(=O)c1CNC(=O)c1cc(-c2ccc(N3CCN(C(C)C)CC3)nc2)cc2c1cnn2C(C)C"
  assayed.system: "HEK-293T"
  value.reported: 0
- compound: "C[C@@H](Oc1cc(-n2cnc3ccc(CN4CCN(C)CC4)cc32)sc1C(N)=O)c1ccccc1C(F)(F)F [GSK-461364]"
  assayed.system: "HEK-293T"
  value.reported: 0
- compound: "Cc1c(C2=CCN(C(=O)N(C)C(C)C)CC2)nnn1-c1cccnc1F"
  assayed.system: "HEK-293T"
  value.reported: 1

Problem: Report Growth Rate for `Cc1cc2c(cc1C1(c3ccc(C(=O)O)cn3)CC1)C(C)(C)CCC2(C)C` please.
Solution: 1

Problem: What about this compound? CCCCCNC(=N)N/N=C/c1c[nH]c2ccc(OC)cc12.O=C(O)/C=C\C(=O)O [TEGASEROD MALEATE]
Solution: 0

Problem: What about this compound? `c1ccc(-c2oc3ncnc(NC[C@@H]4CCCO4)c3c2-c2ccccc2)cc1`
Solution: 0

Problem: What about this compound? `CCOC(=O)CCNc1cc(N2CCc3ccccc3CC2)nc(-c2ccccn2)n1`
Solution: 0

Numbers sourced from ChEMBL document CHEMBL4689842.
